assay: amyloid nucleation score (Sup35N fusion, yeast selection) (log enrichment); library NNK2; higher = more nucleation; inactive = no reads after selection;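 also: zero at mode of non-aggregating sequences after 7 days selection at 30°C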

{"Substance": "INFMAVDDKPRVVVEPCPSA", "amyloid nucleation score": 0.623}
{"Substance": "FPGRFRGKSLEKRMVM", "amyloid nucleation score": 0.721}
{"Substance": "DDFRGIAGIWWRG", "amyloid nucleation score": 0.785}
{"Substance": "YIPARSRMGYVAQKLGTTRL", "amyloid nucleation score": -0.025}
{"Substance": "LSKPDLRTGSDDMS", "amyloid nucleation score": -0.297}
{"Substance": "LMDERGMTKMTYFVYLLKKA", "amyloid nucleation score": 0.661}
{"Substance": "IWMRVVC", "amyloid nucleation score": 0.337}
{"Substance": "NGSDRWQASHRTNWGMVGFG", "amyloid nucleation score": 0.597}
{"Substance": "FLFETMVIFSSSEMVWRDWC", "amyloid nucleation score": 0.192}
{"Substance": "RSGLLDMS", "amyloid nucleation score": -0.129}
{"Substance": "VMATLHSLFVYRVDTFMFVE", "amyloid nucleation score": 0.358}
{"Substance": "ILAQNCSFYLGVTLRIARRH", "amyloid nucleation score": 1.21}
{"Substance": "FRAFLQITLILNCGSSASDV", "amyloid nucleation score": 3.45}

====

experiment: amyloid nucleation score (Sup35N fusion, yeast selection) (log enrichment); library NNK1; higher = more nucleation; inactive = no reads after selection
We use 1 as the dividing line for amyloid nucleation score: on or above the line is 1, below is -1.

{"Entry sequence": "VWIALFDVTDDMSARTDIWS", "Assigned class": -1}
{"Entry sequence": "FESRDVRSLWWDWSYSNKTV", "Assigned class": -1}
{"Entry sequence": "FWRMTFQRHEKLSHQ", "Assigned class": -1}
{"Entry sequence": "RNWREVSYMIQVGW", "Assigned class": -1}
{"Entry sequence": "HLYLRITTVG", "Assigned class": 1}
{"Entry sequence": "YCDAYPGRKTEILVVQLF", "Assigned class": 1}
{"Entry sequence": "QLAAWSGFN", "Assigned class": -1}
{"Entry sequence": "LFIVTFSYFLSPRLVQWYAL", "Assigned class": -1}
{"Entry sequence": "GFVILDSNPLRFNCFWVDAF", "Assigned class": -1}
{"Entry sequence": "ELVYRMESIFCSELRVLGKF", "Assigned class": 1}

====

Reported amyloid nucleation score by item:
assay: amyloid nucleation score (Sup35N fusion, yeast selection) (log enrichment); library NNK2; higher = more nucleation; inactive = no reads after selection

{"Substance": "PGDGTFLMFLACGCFRPFCG", "amyloid nucleation score": -0.181}
{"Substance": "NLFQRCREGDMVRNSSVLDG", "amyloid nucleation score": -0.017}
{"Substance": "VSFRYCLYYYTENVVHMIVK", "amyloid nucleation score": -1.85}
{"Substance": "VVMMSGYILTSTSLVYYHFY", "amyloid nucleation score": 0.005}
{"Substance": "AVICVSSRIQFMWMLGGDGT", "amyloid nucleation score": 5.69}
{"Substance": "RHQYETKYRPYRVIPLQRMV", "amyloid nucleation score": 0.277}
{"Substance": "GSCRHHRWGLVRGMFCVSAL", "amyloid nucleation score": 1.17}
{"Substance": "QSLIDSVHVALHKLLRRYVK", "amyloid nucleation score": -0.232}
{"Substance": "TGHWQLQNSSQA", "amyloid nucleation score": 0.841}
{"Substance": "SMYSVYSFYTEIGTL", "amyloid nucleation score": -0.441}
{"Substance": "LFVLDNMDDIWNSIISWVGR", "amyloid nucleation score": -0.295}
{"Substance": "RFKLEYHEEG", "amyloid nucleation score": 2.81}
{"Substance": "LHLFAKSATSLVIVFAQDLI", "amyloid nucleation score": -0.455}
{"Substance": "FTDCHWSDLLRSFVAWYDIV", "amyloid nucleation score": 0.918}
{"Substance": "LRFNSNHPHFRGHLYSAVQR", "amyloid nucleation score": 3.7}
{"Substance": "RWIVGQRRKIESWWQMVPIY", "amyloid nucleation score": 0.81}
{"Substance": "VLFEFTC", "amyloid nucleation score": 4.33}
{"Substance": "TFKFWCVTKETEQHVSYASR", "amyloid nucleation score": 4.54}
{"Substance": "YSTTDHKWSRNLGIIMVVMW", "amyloid nucleation score": 0.185}
{"Substance": "VSVARSSFARKDYCEFFRPG", "amyloid nucleation score": 1.17}
{"Substance": "CIQIAIYGWFTDTTIRG", "amyloid nucleation score": 6.48}
{"Substance": "LRCFSHRPCPKNNIVF", "amyloid nucleation score": 0.602}
{"Substance": "CEEAVSIGLKGYEHVEKSAP", "amyloid nucleation score": -0.313}
{"Substance": "GFCPLVRPSCESFRLQERLV", "amyloid nucleation score": -0.303}
{"Substance": "KLGLVKMSPYIMFTHVCDGW", "amyloid nucleation score": -0.217}
{"Substance": "SIRRCPVKFINKRLVVYLKV", "amyloid nucleation score": -0.88}
{"Substance": "IFASSYVLSHYILGGHRSRK", "amyloid nucleation score": 2.7}
{"Substance": "TFLSSC", "amyloid nucleation score": 0.096}
{"Substance": "RMVKLDDNVKYYVKSVEGYE", "amyloid nucleation score": 0.276}
{"Substance": "WWFYAYVYWRW", "amyloid nucleation score": -0.403}
{"Substance": "FLLHVCVADKVGVTSIHTCC", "amyloid nucleation score": -0.181}
{"Substance": "SLPSRYWVSLFCTSLLW", "amyloid nucleation score": 0.743}
{"Substance": "LLIVNCMLANYSFWIQSSGS", "amyloid nucleation score": 5.97}
{"Substance": "SMFCVPFMINLVLYVMGEVW", "amyloid nucleation score": 0.288}
{"Substance": "FCWRNCLNVIDTF", "amyloid nucleation score": -1.22}
{"Substance": "SIRIKRLSNLQSRNPVRPRV", "amyloid nucleation score": -0.578}
{"Substance": "LWLKEVYRWMIGGTRYL", "amyloid nucleation score": -0.618}
{"Substance": "MIICLEVKTGYST", "amyloid nucleation score": 3.73}
{"Substance": "AVRTLDNMGLYAWISAKVCR", "amyloid nucleation score": -0.184}
{"Substance": "VRGAVSLL", "amyloid nucleation score": -0.64}
{"Substance": "TIIIREQSKPFPCLE", "amyloid nucleation score": 0.931}
{"Substance": "SMATSSYMLSAMRTCTLRSV", "amyloid nucleation score": -0.231}
{"Substance": "GYWEAFFQLGASPYAGRSRG", "amyloid nucleation score": -0.13}
{"Substance": "PIYLIC", "amyloid nucleation score": -0.686}
{"Substance": "TQLTDASSELLPPGSRLQCS", "amyloid nucleation score": 1.03}
{"Substance": "VVILFVLGLVNPELS", "amyloid nucleation score": 0.649}
{"Substance": "RTLPFWWLNLFWFLNNMDTF", "amyloid nucleation score": -1.8}
{"Substance": "CRIQPDFRFMCLRNCGLESR", "amyloid nucleation score": -0.855}
{"Substance": "RKGSNDYPFWPAVVWHPLPA", "amyloid nucleation score": 0.753}
{"Substance": "YSVDACMMNGSVDKTVSFR", "amyloid nucleation score": 0.122}
{"Substance": "SSREYEEGMAGTGGLELLSL", "amyloid nucleation score": 1.16}
{"Substance": "YITAGFKESTSGQRQLRSWL", "amyloid nucleation score": 2.08}
{"Substance": "IFFLPVTCTWGTQWRL", "amyloid nucleation score": 1.56}

====

test: amyloid nucleation score (Sup35N fusion, yeast selection) (log enrichment); library NNK2; higher = more nucleation; inactive = no reads after selection
Reported amyloid nucleation score by item:

{"Substance": "CTWTYE", "amyloid nucleation score": 5.92}
{"Substance": "SPSDAL", "amyloid nucleation score": -0.578}
{"Substance": "TNDASYSIDLWW", "amyloid nucleation score": -0.304}

====

experiment: amyloid nucleation score (Sup35N fusion, yeast selection) (log enrichment); library NNK2; higher = more nucleation; inactive = no reads after selection
Reported amyloid nucleation score by item:
Readout name: amyloid nucleation score

{"Entry sequence": "GELDGNRERILRRRGTMDYQ", "Experimental result": 2.56}
{"Entry sequence": "RGRHGASMELESVDKRTVSR", "Experimental result": 0.656}
{"Entry sequence": "IFRISPSLGKRYGVRPERSW", "Experimental result": 1.32}

====

Reported amyloid nucleation score by item:
experiment: amyloid nucleation score (Sup35N fusion, yeast selection) (log enrichment); library NNK2; higher = more nucleation; inactive = no reads after selection

{"Entry sequence": "MSRWTKIGNFDNIPSIPLVV", "amyloid nucleation score": -0.228}
{"Entry sequence": "LFNEDACTFLTMCANIKVGQ", "amyloid nucleation score": 4.97}
{"Entry sequence": "KLVCRMTGCFWVVFIACPYY", "amyloid nucleation score": 0.175}
